- Test system: HpdA/P_H16_RS24175 L-tyrosine biosensor (pEH158)
- Experiment description: relative induction of RFP reporter vs primary effector; higher = stronger activation
- Applied conditions: inducer concentration 5 mM; 6 h; Cupriavidus necator H16; minimal medium + 0.4% gluconate
Listed here: items and their measured relative induction of RFP reporter.
Express your answer in %, writing the number without its unit.

Some compounds with known relative induction of RFP reporter results, for comparison:
Compound	Result value
NCCC(=O)O [β-alanine]	-0.165
O=CO [formate]	-0.107
O=C(O)C1CCCCC1 [cyclohexane-1-carboxylate]	-0.0345
O=C(O)c1ccccc1O [salicylate]	-0.0712
O=C(O)CCO [3-hydroxypropanoate]	-0.172

Next item in the queue.
GET /values?readout=relative induction of RFP reporter&item= OC1OC[C@H](O)[C@H](O)[C@H]1O (mixture of isomers) [L-arabinose]
0.0304

* * *

Below, each entry is listed with its recorded relative induction of RFP reporter.
- System: FdsR/P_H16_RS03165 formate biosensor (pEH134)
- Experiment description: relative induction of RFP reporter vs primary effector; higher = stronger activation
- Applied conditions: inducer concentration 5 mM; 6 h; Cupriavidus necator H16; minimal medium + 0.4% gluconate

Below are worked cases with known answers.
Compound	Assayed target	Result value
Nc1ccccc1C(=O)C[C@H](N)C(=O)O	FdsR/P_H16_RS03165 formate biosensor (pEH134)	-4.32%
OC1OC[C@H](O)[C@H](O)[C@H]1O (mixture of isomers)	FdsR/P_H16_RS03165 formate biosensor (pEH134)	-1.73%

Let us move to another entry and its relative induction of RFP reporter.
# returns recorded relative induction of RFP reporter (system: FdsR/P_H16_RS03165 formate biosensor (pEH134)) for NCCC(=O)O
-3.65%

* * *

Measured relative induction of RFP reporter accompanies every entry in the list below.
- Tested on: PhhR/P_H16_RS18365 L-phenylalanine biosensor (pEH137)
- Experiment description: relative induction of RFP reporter vs primary effector (background-corrected); higher = stronger activation of the biosensor
- Applied conditions: inducer concentration 5 mM; 6 h; Cupriavidus necator H16; minimal medium + 0.4% gluconate
A number alone suffices; assume %.

Look over these answered cases.
Compound	Unit spec	relative induction of RFP reporter
Cn1c(=O)c2c(ncn2C)n(C)c1=O [caffeine]	%	1.57
O=C(O)C1CCCC1 [cyclopentane-1-carboxylate]	%	-0.439
O=C(O)c1c(O)cccc1O [2,6-dihydroxybenzoate]	%	0.0318

I have this compound here, Oc1ccccc1 [phenol] , and I need its recorded relative induction of RFP reporter.
-0.522

Entry O=C(O)c1ccc(O)cc1 [4-hydroxybenzoate] please
-0.483

Another compound to look at: O=c1cc[nH]c(=O)[nH]1 [uracil]
0.347

And for O=C(O)C(O)C(=O)O [tartronic acid] ?
-0.338

Would you kindly repeat that for C[C@H](N)C(=O)O [L-alanine] ?
-0.741

* * *

- Tested on: heterologous inducible system pEH086 (rhamnose/acrylate/cumate/itaconate set)
- Experiment description: relative induction of RFP reporter vs primary effector (background-corrected); higher = stronger activation of the biosensor
- Applied conditions: inducer concentration 5 mM; 6 h; Cupriavidus necator H16; minimal medium + 0.4% gluconate
Outcome measure: relative induction of RFP reporter (%)
Dear colleague, please return just the value in %, with no unit written.

Known results for compounds:
Compound	Unit spec	Result value
O=C(O)CCC(=O)O [succinate]	%	0.338
OC[C@@H](O)[C@@H](O)[C@H](O)[C@H](O)CO	%	0.0103
O=C(O)C[C@H](O)C(=O)O [L-malate]	%	0.726
N[C@@H](Cc1c[nH]c2ccccc12)C(=O)O	%	-0.228
O=C(O)C(O)c1ccccc1 (stereo not drawn)	%	0.563
O=CC(=O)O [glyoxylate]	%	0.035
NC(=O)CC[C@H](N)C(=O)O	%	0.168

Continue with the compound presented below.
Using the record for O=C(O)c1ccc(O)cc1 [4-hydroxybenzoate] , report its relative induction of RFP reporter.
0.318

* * *

- Test system: BadR/P_H16_RS27200 cyclohexanecarboxylate biosensor (pEH159)
- Experiment description: relative induction of RFP reporter vs primary effector (background-corrected); higher = stronger activation of the biosensor
- Applied conditions: inducer concentration 5 mM; 6 h; Cupriavidus necator H16; minimal medium + 0.4% gluconate
// relative induction of RFP reporter lookup, one value per entry
The answer is to be given in %; state only the numeric part.

Here's what some known entries look like.
Molecule	Result value
O=C(O)CC(=O)C(=O)O [oxaloacetate]	-0.113
Oc1ccccc1	-0.423

Form field: reported relative induction of RFP reporter of O=C(O)c1cc(=O)c2ccccc2[nH]1 [kynurenate]
-0.549

Same thing, different molecule: O=c1[nH]cnc2nc[nH]c12
-0.186

Try the molecule O=S(=O)(O)CCO [isethionate]
0.494

Now consider NCC(O)C(=O)O (stereo unspecified) [3-amino-2-hydroxypropanoate] and answer again.
0.0183

* * *

- System: PhgR/P_H16_RS05530 phenylglyoxylate biosensor (pEH155)
- Experiment description: relative induction of RFP reporter vs primary effector (background-corrected); higher = stronger activation of the biosensor
- Applied conditions: inducer concentration 5 mM; 6 h; Cupriavidus necator H16; minimal medium + 0.4% gluconate
Outcome measure: relative induction of RFP reporter

Known relative induction of RFP reporter results, listed for orientation:
Molecule	Outcome measure	Result value
O=C(O)CC(=O)C(=O)O [oxaloacetate]	relative induction of RFP reporter	-0.502%
Cn1cnc2c1c(=O)[nH]c(=O)n2C	relative induction of RFP reporter	0.316%

For O=C(O)c1c(O)cccc1O [2,6-dihydroxybenzoate] , what is its reported relative induction of RFP reporter?
-0.403%

* * *

- System: heterologous inducible system pEH002 (rhamnose/acrylate/cumate/itaconate set)
- Experiment description: relative induction of RFP reporter vs primary effector (background-corrected); higher = stronger activation of the biosensor
- Applied conditions: inducer concentration 5 mM; 6 h; Cupriavidus necator H16; minimal medium + 0.4% gluconate
# key: entry, value: relative induction of RFP reporter
State just the number; it will be interpreted in %.

Please review the following examples before continuing.
Molecule	relative induction of RFP reporter [%]
O=C(O)c1c(O)cccc1O [2,6-dihydroxybenzoate]	0.00673
NCCc1ccc(O)c(O)c1 [dopamine]	0.0361
N[C@@H](Cc1c[nH]c2ccccc12)C(=O)O [L-tryptophan]	0.00955
O=C(O)CCC(=O)O [succinate]	0.0102
O=C(O)CC(=O)C(=O)O [oxaloacetate]	0.0189
O=C(O)C[C@H](O)C(=O)O [L-malate]	0.00418
Cn1cnc2c1c(=O)[nH]c(=O)n2C [theobromine]	0.0324
O=C(O)CC(CC(=O)O)C(=O)O [tricarballylate]	0.0188
CCCC(=O)O [butyric acid]	-0.00916

Suppose we examine the molecule CC(N)CC(=O)O (stereo not given) [3-aminobutanoate] ; what relative induction of RFP reporter value has been reported?
0.0041

* * *

- Tested on: SauR/P_H16_RS13695 sulfonatoacetate biosensor (pEH157)
- Experiment description: relative induction of RFP reporter vs primary effector (background-corrected); higher = stronger activation of the biosensor
- Applied conditions: inducer concentration 5 mM; 6 h; Cupriavidus necator H16; minimal medium + 0.4% gluconate
Let's look at some compounds and their measured relative induction of RFP reporter.
Use % as the unit, but write only the number.

Compound	relative induction of RFP reporter [%]
O=C(O)/C=C\C=C/C(=O)O [cis,cis-muconate]	-0.0287

Using the record for O=C(O)C(O)C(=O)O [tartronic acid] , report its relative induction of RFP reporter.
0.0532

Request: O=C(O)/C=C/C(=O)O [fumarate]
0.00629

Do the same for Oc1ccccc1O [catechol] please
0.114

Entry N[C@@H](Cc1c[nH]c2ccccc12)C(=O)O [L-tryptophan] please
0.0508

How about this compound: C[C@H](N)C(=O)O [L-alanine]
-0.0427

* * *

- Tested on: PhhR/P_H16_RS18365 L-phenylalanine biosensor (pEH137)
- Experiment description: relative induction of RFP reporter vs primary effector (background-corrected); higher = stronger activation of the biosensor
- Applied conditions: inducer concentration 5 mM; 6 h; Cupriavidus necator H16; minimal medium + 0.4% gluconate
Listed compounds paired with reported relative induction of RFP reporter
Lab book: enter the figure in %, no units written.

Name the recorded relative induction of RFP reporter for NCCc1ccc(O)c(O)c1 .
0.138

Ok, now C[C@@H](O)C(=O)O [D-lactate]
-0.462

What do you get for O=C(O)CC(=O)C(=O)O [oxaloacetate] ?
-0.153

Field entry: CCC(=O)O [propanoate]
-0.418

And O=c1[nH]cnc2nc[nH]c12 ?
-0.204

Record: NCC(N)C(=O)O (stereo unspecified) [2,3-diaminopropanoate]
0.0532

* * *

Each record here notes measured relative induction of RFP reporter.
- Test system: PhhR/P_H16_RS18365 L-phenylalanine biosensor (pEH137)
- Experiment description: relative induction of RFP reporter vs primary effector (background-corrected); higher = stronger activation of the biosensor
- Applied conditions: inducer concentration 5 mM; 6 h; Cupriavidus necator H16; minimal medium + 0.4% gluconate
Give the value in % but do not write % after it.

Compound	Result value
C[C@H](O)C(=O)O [L-lactate]	-0.296

Which relative induction of RFP reporter is reported for this compound? O=C(O)C(O)c1ccccc1 (stereo not given) [mandelic acid]
-0.406

Follow-up entry: NC(C(=O)O)c1ccccc1 (racemic) [D,L-2-phenylglycine]
-0.209

And for O=C(O)CCC(=O)O [succinate] ?
0.239

What about CC(=O)CCC(=O)O [levulinic acid] ?
-0.623
